- Tested on: HeLa cells
- test: MTT assay for cell proliferation, HeLa
- Type: cell-based
- setup_conditions: preliminary screening, Hela, 16 μM, 48 h, mean±SD; unit not given
assay_metric: Inhibition rate (16μM), 48 h, Hela

>>> reading("COc1c2n(cc(C(=O)Nc3cccc(-c4cn(-c5ccccc5Br)nn4)c3)c1=O)CC1OCC(C)N1C2=O (stereo not shown)")
"19.16±1.71"

The compound "COc1c2n(cc(C(=O)Nc3cccc(-c4cn(-c5ccc(C(F)(F)F)cc5)nn4)c3)c1=O)C[C@H]1OC[C@H](C)N1C2=O" , when measured on HeLa cells, yielded Inhibition rate (16μM), 48 h, Hela of 33.99±1.59

The compound "COc1c2n(cc(C(=O)Nc3cccc(-c4cn(-c5ccccc5OC(F)(F)F)nn4)c3)c1=O)C[C@H]1OC[C@H](C)N1C2=O" , when measured on HeLa cells, yielded Inhibition rate (16μM), 48 h, Hela of 75.9±1.83

The compound COc1c2n(cc(C(=O)Nc3cccc(-c4cn(-c5ccccc5Cl)nn4)c3)c1=O)CC1OCC(C)N1C2=O (stereo not shown) , when measured on HeLa cells, yielded Inhibition rate (16μM), 48 h, Hela of 63.13±0.49

The compound "COc1c2n(cc(C(=O)Nc3cccc(-c4cn(-c5ccccc5F)nn4)c3)c1=O)C[C@H]1OC[C@H](C)N1C2=O" , when measured on HeLa cells, yielded Inhibition rate (16μM), 48 h, Hela of 47.99±4.29

The compound "COc1c2n(cc(C(=O)Nc3cccc(-c4cn(-c5ccccc5C)nn4)c3)c1=O)C[C@H]1OC[C@H](C)N1C2=O" , when measured on HeLa cells, yielded Inhibition rate (16μM), 48 h, Hela of 37.61±4.86

The compound COc1c2n(cc(C(=O)Nc3cccc(-c4cn(-c5cccc(Cl)c5)nn4)c3)c1=O)CC1OCC(C)N1C2=O (stereo not shown) , when measured on HeLa cells, yielded Inhibition rate (16μM), 48 h, Hela of 59.34±4.79
